The origin of these recorded values is PubChem BioAssay (EPA / NIEHS).

- method summary: APR_HepG2_CellLoss_72hr: Apredica 72-hour HepG2 Assay for Cell Loss (AID 2282915)
- condition description: high-content imaging
Active and inactive are the calls of the source. Rule for the calls: active = hit-call score of the fitted dose curve at least 0.9, where 1 is the maximum; inactive = score below 0.9.
observation type: AC50

Consider the following illustrative entries.
compound	AC50
Cc1ccc(C(C)(C)C)c(O)c1	145 µM (active)
CN(C)C(=O)NC1(c2ccccc2)CCN(CC[C@@]2(c3ccc(F)c(F)c3)CN(C(=O)c3ccccc3)CCO2)CC1	111 µM (active)
CC(=O)O	49.4 µM (active)
CCCCOC(=O)CCCCC(=O)OCCCC	inactive
O=C(O)c1[nH]n(-c2ccc(S(=O)(=O)O)cc2)c(=O)c1N=Nc1ccc(S(=O)(=O)O)cc1	inactive
CN(C)C(=O)NC1(c2ccccc2)CCN(CCC[C@]2(c3ccc(Cl)c(Cl)c3)CCCN(C(=O)c3ccccc3)C2)CC1	16 µM (active)
CCCCCCCCCC[N+](C)(C)[O-]	140 µM (active)
Cc1ccc(-c2cc(C(F)(F)F)nn2-c2ccc(S(N)(=O)=O)cc2)cc1	40.8 µM (active)

*Q* What does the data say about its AC50? Entry: "Cc1cn([C@H]2C=C[C@@H](CO)O2)c(=O)[nH]c1=O"
*A* inactive

*Q* What does the data say about its AC50? Entry: CC(=O)OC1CC(C)OC(C)O1 (stereo unspecified)
*A* inactive

*Q* What does the data say about its AC50? Entry: "N[C@@H](Cc1c[nH]c2ccccc12)C(=O)O"
*A* inactive
